In this section we review reported drug sensitivity score values for a set of compounds.
- Tested on: NKL (IL-2 2.5 ng/mL)
- Test Protocol: drug sensitivity score (DSS) (DSS units); higher = more sensitive; extreme values may be limits of the assay
- Assay Setup: 72 h
Metric Name: drug sensitivity score

compound="COC(=O)C[C@](O)(CCCC(C)(C)O)C(=O)O[C@@H]1C(OC)=C[C@]23CCCN2CCc2cc4c(cc2[C@H]13)OCO4 [Omacetaxine] (max concentration tested 10000 nM)" observed_measurement=30.8
compound="O=c1cc(N2CCOCC2)oc2c(-c3ccccc3)cccc12 (max concentration tested 100000 nM)" observed_measurement=10.7
compound="O=C(c1ccc(F)c(F)c1Nc1ccc(I)cc1F)N1CC(O)([C@@H]2CCCCN2)C1 [Cobimetinib] (max concentration tested 1000 nM)" observed_measurement=10.4
compound="NCC(=O)Nc1ccc(-n2nc(C(F)(F)F)cc2-c2ccc3c(ccc4ccccc43)c2)cc1 (max concentration tested 25000 nM)" observed_measurement=6.99
compound="COc1cccc2c1c(O)c(C(=O)N(C)c1ccc(C(F)(F)F)cc1)c(=O)n2C [Tasquinimod] (max concentration tested 10000 nM)" observed_measurement=0
compound="O=S(=O)(c1cccc2c(O)nccc12)N1CCCNCC1 [Hydroxyfasudil] (max concentration tested 37500 nM)" observed_measurement=3.11
compound="O=C(Nc1cccc(Cl)c1)Nc1ncc(CCNc2ncnc3ccsc23)s1 [SNS-314] (max concentration tested 1000 nM)" observed_measurement=4.85
compound="O=C(Nc1ccncc1)C(=O)c1cn(Cc2ccc(Cl)cc2)c2ccccc12 [Indibulin] (max concentration tested 10000 nM)" observed_measurement=21.9
compound="CN(c1ncccc1CNc1nc(Nc2ccc3c(c2)CC(=O)N3)ncc1C(F)(F)F)S(C)(=O)=O (max concentration tested 10000 nM)" observed_measurement=8.95
compound="Nc1ncnc2c1nc(N)n2[C@@H]1O[C@H](CO)[C@@H](O)[C@H]1O [8-amino-adenosine] (max concentration tested 50000 nM)" observed_measurement=25.6
compound="CCN1CCN(c2ccc(Nc3cc(N(C)C(=O)Nc4c(Cl)c(OC)cc(OC)c4Cl)ncn3)cc2)CC1 [NVP-BGJ398] (max concentration tested 1000 nM)" observed_measurement=0.59
compound="CCn1c(-c2nonc2N)nc2cnc(Oc3cccc(NC(=O)c4ccc(OCCN5CCOCC5)cc4)c3)cc21 (max concentration tested 10000 nM)" observed_measurement=5.93
